# Target or system: T1, scHLA-B27-mmH (engineered HLA-B*27 ectodomain in-line fusion protein) (human (HLA-B*2705, beta-2 …))
# T1 construct: also called soluble HLA-B*27 fusion protein
# Experimental protocol: SPR (Biacore), 25 C, PBS pH 7.2
# pKd annotations
Bear in mind: pKd is minus log10 of a mol/L concentration; give just that figure.

• H4H2542P (antibody, V domains shown) VH: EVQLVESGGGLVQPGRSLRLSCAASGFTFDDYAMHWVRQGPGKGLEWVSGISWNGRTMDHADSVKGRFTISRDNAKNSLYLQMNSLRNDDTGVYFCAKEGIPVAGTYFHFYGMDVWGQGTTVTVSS VL: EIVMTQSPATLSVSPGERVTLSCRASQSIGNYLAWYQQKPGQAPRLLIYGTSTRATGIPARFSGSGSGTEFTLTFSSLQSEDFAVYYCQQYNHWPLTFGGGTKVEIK = 7.28

Turning now to a further record.
The binder H4H2538P (antibody, V domains shown) VH: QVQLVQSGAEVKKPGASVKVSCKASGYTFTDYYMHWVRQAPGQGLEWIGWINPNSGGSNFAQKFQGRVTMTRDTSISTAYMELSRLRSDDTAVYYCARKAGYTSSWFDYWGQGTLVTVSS VL: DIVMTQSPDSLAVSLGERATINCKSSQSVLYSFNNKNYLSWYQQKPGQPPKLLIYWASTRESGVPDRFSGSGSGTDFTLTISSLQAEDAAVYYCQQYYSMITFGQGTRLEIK showed pKd equal to 9.43

Provenance of the data: patent US20130259876A1
